Each recorded value in this set is attributed to patent US20150166662A1.

# subject-of-test: T1, recombinant sCD4 comprising the full-length extracellular domain of human CD4 (human, UniProt P01730 26-396)
# T1 construct: also called human soluble CD4; human sCD4 protein
# assay-comment: SPR (Biacore), antibody amine-coupled on the chip, human sCD4 as analyte, 25 C, 1:1 Langmuir fit

binder	koff [s⁻¹]
LM52, glycan-modified anti-CD4 IgG1 antibody with an N-linked glycan at light chain position 52 (antibody, V domains shown) VH: QVQLQQSGPEVVKPGASVKMSCKASGYTFTSYVIHWVRQKPGQGLDWIGYINPYNDGTDYDEKFKGKATLTSDTSTSTAYMELSSLRSEDTAVYYCAREKDNYATGAWFAYWGQGTLVTVSS VL: DIVMTQSPDSLAVSLGERVTMNCKSSQSLLYSTNQKNYLAWYQQKPGQSPKLLIYWANSTESGVPDRFSGSGSGTDFTLTISSVQAEDVAVYYCQQYYSYRTFGGGTKLEIKR	0.00016
LM65, ibalizumab light chain mutant with an N-linked glycosylation site at position 65 (antibody, human IgG1, kappa, V domains shown) VH: QVQLQQSGPEVVKPGASVKMSCKASGYTFTSYVIHWVRQKPGQGLDWIGYINPYNDGTDYDEKFKGKATLTSDTSTSTAYMELSSLRSEDTAVYYCAREKDNYATGAWFAYWGQGTLVTVSS VL: DIVMTQSPDSLAVSLGERVTMNCKSSQSLLYSTNQKNYLAWYQQKPGQSPKLLIYWASTRESGVPDRFSGNATGTDFTLTISSVQAEDVAVYYCQQYYSYRTFGGGTKLEIKR	0.00049
